Consider the following compounds and their measured growth inhibition by drug plus 177Lu-lilotomab satetraxetan readings.
Tested on: U-2932
protocol: growth inhibition by drug plus 177Lu-lilotomab satetraxetan (1 - RLU/untreated control) (fraction); higher = stronger inhibition
assay_context: 10 nM; time (day): 5; 177Lu-lilotomab satetraxetan 1 ug/ml
Counter-ions that a name gives are not always drawn.
measurement_name: growth inhibition by drug plus 177Lu-lilotomab satetraxetan

[[record]]
compound = "CC(=O)[C@]1(O)Cc2c(O)c3c(c(O)c2[C@@H](O[C@H]2C[C@H](N)[C@H](O)[C@H](C)O2)C1)C(=O)c1ccccc1C3=O [Idarubicin HCl]"
result = 0.817

[[record]]
compound = "C[C@H](NC(=O)Cc1cc(F)cc(F)c1)C(=O)N[C@H](C(=O)OC(C)(C)C)c1ccccc1"
result = 0.0667

[[record]]
compound = "N#CCNC(=O)c1ccc(-c2ccnc(Nc3ccc(N4CCOCC4)cc3)n2)cc1"
result = 0.0189

[[record]]
compound = "COc1cc(Nc2ncc(F)c(Nc3ccc4c(n3)NC(=O)C(C)(C)O4)n2)cc(OC)c1OC [R406(free base)]"
result = 0.0816

[[record]]
compound = "Nc1ccccc1NC(=O)c1ccc(CNc2nccc(-c3cccnc3)n2)cc1"
result = 0.0145

[[record]]
compound = "COc1cccc2c1C(=O)c1c(O)c3c(c(O)c1C2=O)C[C@@](O)(C(C)=O)C[C@@H]3O[C@H]1C[C@H](N)[C@H](O)[C@H](C)O1 [Daunorubicin HCl (Daunomycin HCl)]"
result = 0.341

[[record]]
compound = "CCOc1cc(C(=O)Nc2ccc(Cl)c(-c3nc4ccccc4[nH]3)c2)cc(OCC)c1OCC"
result = 0.0337


----------
Tested on: RIVA
protocol: growth inhibition by drug alone (1 - RLU/untreated control) (fraction); higher = stronger inhibition
assay_context: 100 nM; time (day): 3; 177Lu-lilotomab satetraxetan 0 ug/ml
Consider the following molecules and their measured growth inhibition by drug alone readings.
measurement_name: growth inhibition by drug alone

[[record]]
molecule = "O=C(Nc1ccc(OC(F)(F)F)cc1)c1sccc1NCc1ccnc2ccccc12"
measurement_name = "growth inhibition by drug alone"
quantitative_readout = -0.426

[[record]]
molecule = "CN1C(=O)C(Cc2c[nH]c3ccccc23)NC1=S (centres undefined)"
measurement_name = "growth inhibition by drug alone"
quantitative_readout = -0.34

[[record]]
molecule = "CC(C)C[C@H](NC(=O)[C@@H](O)[C@H](N)Cc1ccccc1)C(=O)O"
measurement_name = "growth inhibition by drug alone"
quantitative_readout = 0.0407

[[record]]
molecule = "COc1cc2nccc(Oc3ccc(NC(=O)Nc4cc(C)on4)c(Cl)c3)c2cc1OC"
measurement_name = "growth inhibition by drug alone"
quantitative_readout = 0.0881

[[record]]
molecule = "CCOC(=O)[C@@H](C)Oc1cccc2c(=O)n(CC(=O)Nc3ccc4c(c3)OCCO4)ccc12"
measurement_name = "growth inhibition by drug alone"
quantitative_readout = 0.0368

[[record]]
molecule = "Nc1nccc(-c2ccc3noc(-c4ccc(Cl)cc4)c3c2)n1"
measurement_name = "growth inhibition by drug alone"
quantitative_readout = 0.116

[[record]]
molecule = "O=C(Nc1ncc([N+](=O)[O-])s1)c1ccc([N+](=O)[O-])c(Cl)c1"
measurement_name = "growth inhibition by drug alone"
quantitative_readout = -0.0662

[[record]]
molecule = "C[C@@H]1CN(CC(=O)Nc2ccc3c(c2)Cc2cccc(-c4cc(=O)cc(N5CCOCC5)o4)c2S3)C[C@H](C)O1"
measurement_name = "growth inhibition by drug alone"
quantitative_readout = -0.282

[[record]]
molecule = "CS(=O)(=O)N1CCc2c(-c3cnc(N)nc3)nc(N3CCOCC3)nc21"
measurement_name = "growth inhibition by drug alone"
quantitative_readout = 0.291


----------
Consider the following molecules and their measured growth inhibition by drug plus 177Lu-lilotomab satetraxetan readings.
Tested on: RIVA
protocol: growth inhibition by drug plus 177Lu-lilotomab satetraxetan (1 - RLU/untreated control) (fraction); higher = stronger inhibition
assay_context: 10 nM; time (day): 4; 177Lu-lilotomab satetraxetan 0.5 ug/ml
Structures can show the parent of a compound that is named as a salt.
measurement_name: growth inhibition by drug plus 177Lu-lilotomab satetraxetan

[[record]]
molecule = "Cc1c(CCOc2ccc(C(=O)O)cc2)c2cc(Cl)ccc2n1C(c1ccccc1)c1ccccc1"
quantitative_readout = 0.573

[[record]]
molecule = "Cc1[nH]c(/C=C2\\C(=O)Nc3ccc(S(=O)(=O)N(C)c4cccc(Cl)c4)cc32)c(C)c1C(=O)N1CCN(C)CC1"
quantitative_readout = 0.536

[[record]]
molecule = "COc1cccc2c1C(=O)c1c(O)c3c(c(O)c1C2=O)C[C@@](O)(C(=O)CO)C[C@@H]3O[C@H]1C[C@H](N)[C@@H](O)[C@H](C)O1 [Epirubicin Hydrochloride]"
quantitative_readout = 0.792

[[record]]
molecule = "CN[C@@H](C)C(=O)N[C@H]1CN(C(=O)CC(C)C)CC[C@H]2CC[C@@H](C(=O)NC(c3ccccc3)c3ccccc3)N2C1=O"
quantitative_readout = 0.56

[[record]]
molecule = "Oc1cccc(-c2nc(N3CCOCC3)c3oc4ncccc4c3n2)c1"
quantitative_readout = 0.556

[[record]]
molecule = "O=C(O)Cc1cccc(OCCCN(Cc2cccc(C(F)(F)F)c2Cl)CC(c2ccccc2)c2ccccc2)c1"
quantitative_readout = 0.666

[[record]]
molecule = "O=C(CCCCCCC(=O)Nc1ccccc1)NO [Vorinostat (SAHA)]"
quantitative_readout = 0.518

[[record]]
molecule = "N#CCNC(=O)c1ccc(-c2ccnc(Nc3ccc(N4CCOCC4)cc3)n2)cc1"
quantitative_readout = 0.53

[[record]]
molecule = "CCCC(=O)[O-].[Na+] [Sodium butyrate]"
quantitative_readout = 0.484


----------
Tested on: RIVA
protocol: growth inhibition by drug plus 177Lu-lilotomab satetraxetan (1 - RLU/untreated control) (fraction); higher = stronger inhibition
assay_context: 100 nM; time (day): 5; 177Lu-lilotomab satetraxetan 0.5 ug/ml
measurement_name: growth inhibition by drug plus 177Lu-lilotomab satetraxetan

[[record]]
molecule = "CCOc1ccc(Nc2nc(-c3c(C)nc4ccccn34)cs2)cc1"
result = 0.97

[[record]]
molecule = "COc1c(C)c2c(c(O)c1C/C=C(\\C)CCC(=O)OCCN1CCOCC1)C(=O)OC2 [Mycophenolate mofetil (CellCept)]"
result = 0.583

[[record]]
molecule = "Nc1nccc(-c2ccc3noc(-c4ccc(Cl)cc4)c3c2)n1"
result = 0.524

[[record]]
molecule = "O=C(/C=C/C#Cc1cccc(NS(=O)(=O)c2ccccc2)c1)NO"
result = 0.691

[[record]]
molecule = "C#CCN(C)CC1=Cc2ccccc2Oc2ccccc21"
result = 0.634

[[record]]
molecule = "C=CC(=O)N1CCC[C@@H](n2nc(-c3ccc(Oc4ccccc4)cc3)c3c(N)ncnc32)C1"
result = 0.919

[[record]]
molecule = "NC(=O)c1ccc(I)c([N+](=O)[O-])c1"
result = 0.516

[[record]]
molecule = "CCn1c(-c2nonc2N)nc2cnc(Oc3cccc(NC(=O)c4ccc(OCCN5CCOCC5)cc4)c3)cc21"
result = 0.547

[[record]]
molecule = "C[C@@H](Oc1cc(-n2cnc3ccc(CN4CCN(C)CC4)cc32)sc1C(N)=O)c1ccccc1C(F)(F)F"
result = 0.974

[[record]]
molecule = "Cc1ccc(NC(=O)c2ccc(CN3CC[C@H](N(C)C)C3)c(C(F)(F)F)c2)cc1Nc1nccc(-c2cncnc2)n1"
result = 0.513

[[record]]
molecule = "COc1cc2/c(=N/c3ccc(Br)cc3F)nc[nH]c2cc1OCC1CCN(C)CC1 [Vandetanib (Zactima)]"
result = 0.373

[[record]]
molecule = "CC(C)c1onc(-c2c(Cl)cccc2Cl)c1COc1ccc(/C=C/c2cccc(C(=O)O)c2)c(Cl)c1"
result = 0.554

[[record]]
molecule = "CC(C)(C)c1cnc(CSc2cnc(NC(=O)C3CCNCC3)s2)o1"
result = 0.373

[[record]]
molecule = "N#CC[C@H](C1CCCC1)n1cc(-c2ncnc3[nH]ccc23)cn1"
result = 0.376

[[record]]
molecule = "CC[C@H](CO)Nc1nc(NCc2ccccc2)c2ncn(C(C)C)c2n1 [Roscovitine (Seliciclib, CYC202)]"
result = 0.55

[[record]]
molecule = "C[C@]1(c2nc3c(C(N)=O)cccc3[nH]2)CCCN1"
result = 0.442

[[record]]
molecule = "Cc1cnc(Nc2ccc(OCCN3CCCC3)cc2)nc1Nc1cccc(S(=O)(=O)NC(C)(C)C)c1"
result = 0.289

[[record]]
molecule = "CN(C)CCCCSC(=N)N"
result = 0.415

[[record]]
molecule = "Cn1cc(-c2ccc3nnc(Sc4ccc5ncccc5c4)n3n2)cn1"
result = 0.561


----------
Test system: RIVA
protocol: growth inhibition by drug plus 177Lu-lilotomab satetraxetan (1 - RLU/untreated control) (fraction); higher = stronger inhibition
assay_context: 10 nM; time (day): 5; 177Lu-lilotomab satetraxetan 0.5 ug/ml
measurement_name: growth inhibition by drug plus 177Lu-lilotomab satetraxetan

[[record]]
compound = "Nc1nc2[nH]cc(CCc3ccc(C(=O)N[C@@H](CCC(=O)O)C(=O)O)cc3)c2c(=O)[nH]1"
quantitative_readout = 0.483

[[record]]
compound = "O=C1CN2Cc3c(ccc(Cl)c3Cl)N=C2N1 [Anagrelide]"
quantitative_readout = 0.633

[[record]]
compound = "CCc1ccc(CCOc2ccc(CC3SC(=O)NC3=O)cc2)nc1 (stereo not drawn)"
quantitative_readout = 0.604

[[record]]
compound = "CC[C@@H]1C(=O)N(C)c2cnc(Nc3ccc(C(=O)N[C@H]4CC[C@H](N5CCN(CC6CC6)CC5)CC4)cc3OC)nc2N1C(C)C"
quantitative_readout = 0.726

[[record]]
compound = "Cc1ccc(C(=O)N(CCCN)[C@@H](c2oc3cc(Cl)ccc3c(=O)c2Cc2ccccc2)C(C)C)cc1"
quantitative_readout = 0.981

[[record]]
compound = "CCn1c(-c2nonc2N)nc2c(C#CC(C)(C)O)ncc(OC[C@H]3CCCNC3)c21"
quantitative_readout = 0.475

[[record]]
compound = "c1ccc2c(CCNc3ccc(Nc4ccncc4)cc3)c[nH]c2c1"
quantitative_readout = 0.497

[[record]]
compound = "CO[C@@H](C(=O)N1Cc2[nH]nc(NC(=O)c3ccc(N4CCN(C)CC4)cc3)c2C1)c1ccccc1"
quantitative_readout = 0.603

